Hey, just so you know, these numbers are from PubChem BioAssay (NCI).

test system: EKVX NSCLC; assay: NCI tumour cell line growth inhibition, 48 h
property: TGI

>>> print(df.to_string())
                                   compound  property    result
0     Cc1nc(N)c(N2CCN(C(=O)O)CC2)c(=O)[nH]1       TGI  > 100 µM
1  CC1=CC(=O)CC(C)(C)C1/C=C/C(C)=C/C=C/C(C)=C/C=C/C=C(C)/C=C/C=C(C)/C=C/C1C(C)=CC(=O)CC1(C)C (configuration not stated)       TGI  > 100 µM
2        N#Cc1nc(CCN2C(=O)c3ccccc3C2=O)oc1N       TGI  > 100 µM
3       O=C(NC1(c2cc3ccccc3s2)CCCCC1)C1CCC1       TGI  > 100 µM
4  C[N+]1(CCC(=O)c2ccco2)CC2CCC(CC2)C1 (configuration not stated)       TGI  > 100 µM
5  Cc1c(Cl)cccc1NC(=O)C(=O)C(C(=O)c1ccccc1-c1ccccc1)C1OC(=O)c2ccccc21 (configuration not stated)       TGI     59 µM
6  O=S(=O)(NCCCNc1nccc(-c2c(-c3ccc(O)cc3)nc3sccn23)n1)c1ccc(F)cc1       TGI   9.02 µM
